From: the supplement of paper PMC10307832

# Tested on: LXF-289
# experimental.protocol: relative viability (nuclei count vs DMSO), 5 days (fraction); higher = more cells survive
# recorded.conditions: first compound 0.4 µM
The molecules listed here are annotated with their relative viability.
metric: relative viability

1) Cc1sc2c(c1C)C(c1ccc(Cl)cc1)=N[C@@H](CC(=O)OC(C)(C)C)c1nnc(C)n1-2 [JQ1] + O=C(CCCCCCC(=O)Nc1ccccc1)NO [Vorinostat] (partner 1 µM)    0.665
2) Cc1sc2c(c1C)C(c1ccc(Cl)cc1)=N[C@@H](CC(=O)OC(C)(C)C)c1nnc(C)n1-2 [JQ1] + C[C@]1(O)C[C@@H](c2nc(-c3ccc4ccc(-c5ccccc5)nc4c3)c3c(N)nccn32)C1 [Linsitinib] (partner 1 µM)    0.903
3) Cc1sc2c(c1C)C(c1ccc(Cl)cc1)=N[C@@H](CC(=O)OC(C)(C)C)c1nnc(C)n1-2 [JQ1] + CC1(C)CCC(c2ccc(Cl)cc2)=C(CN2CCN(c3ccc(C(=O)NS(=O)(=O)c4ccc(N[C@H](CCN5CCOCC5)CSc5ccccc5)c(S(=O)(=O)C(F)(F)F)c4)cc3)CC2)C1 [Navitoclax] (partner 0.5 µM)    0.863
4) Cc1sc2c(c1C)C(c1ccc(Cl)cc1)=N[C@@H](CC(=O)OC(C)(C)C)c1nnc(C)n1-2 [JQ1] + CCNC(=O)c1noc(-c2cc(C(C)C)c(O)cc2O)c1-c1ccc(CN2CCOCC2)cc1 [Luminespib] (partner 0.01 µM)    0.597
5) Cc1sc2c(c1C)C(c1ccc(Cl)cc1)=N[C@@H](CC(=O)OC(C)(C)C)c1nnc(C)n1-2 [JQ1] + CC(=O)c1c(C)c2cnc(Nc3ccc(N4CCNCC4)cn3)nc2n(C2CCCC2)c1=O [Palbociclib] (partner 0.5 µM)    0.576

###

# Tested on: NCI-H322M
# experimental.protocol: relative viability (nuclei count vs DMSO), 5 days (fraction); higher = more cells survive
# recorded.conditions: first compound 158.11 µM
metric: relative viability

1. O=C(O)CCCCC(CCSCc1ccccc1)SCc1ccccc1 (stereo not drawn) [CPI-613] + Nc1ncn([C@H]2C[C@H](O)[C@@H](CO)O2)c(=O)n1 [Decitabine] (partner 2 µM)    0.767
2. O=C(O)CCCCC(CCSCc1ccccc1)SCc1ccccc1 (stereo not drawn) [CPI-613] + COc1cc2c(Oc3ccc(NC(=O)C4(C(=O)Nc5ccc(F)cc5)CC4)cc3F)ccnc2cc1OCCCN1CCOCC1 [Foretinib] (partner 0.25 µM)    0.689
3. O=C(O)CCCCC(CCSCc1ccccc1)SCc1ccccc1 (stereo not drawn) [CPI-613] + CS(=O)(=O)N1CCN(Cc2cc3nc(-c4cccc5[nH]ncc45)nc(N4CCOCC4)c3s2)CC1 [Pictilisib] (partner 1 µM)    0.469

###

# System: HARA
# experimental.protocol: relative viability (nuclei count vs DMSO), 5 days (fraction); higher = more cells survive
# recorded.conditions: first compound 0.01581 µM
metric: relative viability

1. COc1cc2nccc(Oc3ccc(NC(=O)Nc4cc(C)on4)c(Cl)c3)c2cc1OC [Tivozanib] + COc1cc2c(Oc3ccc(NC(=O)C4(C(=O)Nc5ccc(F)cc5)CC4)cc3F)ccnc2cc1OCCCN1CCOCC1 [Foretinib] (partner 0.25 µM)    0.855
2. Nc1ccn([C@@H]2O[C@H](CO)[C@@H](O)[C@@H]2O)c(=O)n1 [Cytarabine] + NC(=O)Nc1cc(-c2cccc(F)c2)sc1C(=O)N[C@H]1CCCNC1 [AZD7762] (partner 0.2 µM)    0.211
3. COc1cc2nccc(Oc3ccc(NC(=O)Nc4cc(C)on4)c(Cl)c3)c2cc1OC [Tivozanib] + N=C(N)NC(=N)NCCc1ccccc1 [Phenformin] (partner 250 µM)    0.41
4. COc1cc2nccc(Oc3ccc(NC(=O)Nc4cc(C)on4)c(Cl)c3)c2cc1OC [Tivozanib] + CC1(C)CCC(c2ccc(Cl)cc2)=C(CN2CCN(c3ccc(C(=O)NS(=O)(=O)c4ccc(N[C@H](CCN5CCOCC5)CSc5ccccc5)c(S(=O)(=O)C(F)(F)F)c4)cc3)CC2)C1 [Navitoclax] (partner 0.5 µM)    1.04
